experiment: logP determination by HPLC (formic acid method); format: physicochemical; conditions: reversed-phase HPLC column (C18), pH 3.4, HPLC on reversed-phase column (C18), acidic range (pH 3.4), 55° C.; read-out: logP (HCOOH)
I'd appreciate it if you marked entries met when chromatographic logP is lower than 2 and not met when it is not.

**Query** Could you please tell me whether chromatographic logP recorded for Cc1nc(-c2cccnc2)sc1-c1ccnc(C(F)(F)F)n1 is less than 2?
**Result** not met

**Query** Also check Cc1nc(-c2cncc(F)c2)sc1-c1cccc(-c2ncccn2)n1
**Result** not met

**Query** Also check COCCNC(=S)n1ccc(-c2sc(-c3cccnc3)nc2C)n1
**Result** not met

**Query** Also check c1cncc(-c2nnc(-c3cc[nH]n3)s2)c1
**Result** met

**Query** Also check Cc1nc(-c2cccnc2)sc1-c1ccnc(CC2CC2)n1
**Result** not met

**Query** Also check Cc1nc(-c2cccnc2)sc1-c1ccn(-c2nnc(C(C)(C)C)s2)n1
**Result** not met

**Query** Also check Cc1nc(-c2cccnc2)sc1-n1ccc(-c2ncccn2)n1
**Result** met

**Query** Also check CN(C)C(=O)c1cccc(-c2nnc(-c3cccnc3)s2)n1
**Result** met

**Query** Also check Cc1nc(-c2cccnc2)sc1-c1nc(C(=O)NCC(F)(F)F)cs1
**Result** not met

**Query** Also check c1cnc(-c2cccc(-c3nnc(-c4cccnc4)s3)n2)nc1
**Result** met

**Query** Also check Cc1nc(-c2cccnc2)sc1-c1ccn(-c2nnc(C(F)Cl)s2)n1 (stereo not shown)
**Result** not met

**Query** Also check O=C1CCCN1c1cccc(-c2cnc(-c3cccnc3)s2)n1
**Result** not met

**Query** Also check COC(OC)c1ccn(-c2sc(-c3cccnc3)nc2C)n1
**Result** met

**Query** Also check Cc1nc(-c2cccnc2)sc1-c1nc(C(=O)N2CCCCC2)cs1
**Result** not met

**Query** Also check CCCOCC(C)NC(=O)n1ccc(-c2sc(-c3cccnc3)nc2C)n1 (stereo not shown)
**Result** not met

**Query** Also check COC(=O)/C(=N\O)c1nccc(-c2sc(-c3cccnc3)nc2C)n1
**Result** met

**Query** Also check c1cncc(-c2ncc(-c3cccc(C4=NOCCO4)n3)s2)c1
**Result** met

**Query** Also check c1cnc(-n2ccc(-c3cnc(-c4cccnc4)s3)n2)nc1
**Result** met

**Query** Also check Cc1ccc(-c2nccc(-c3sc(-c4cccnc4)nc3C)n2)nc1C
**Result** met

**Query** Also check Cc1nc(-c2cccnc2)sc1-c1cccc(=O)[nH]1
**Result** met

**Query** Also check Cc1nc(-c2cccnc2)sc1-c1ccn(C(=O)NC2CCCC2)n1
**Result** not met

**Query** Also check Cc1nc(-c2cccnc2)sc1-n1ccc(Br)n1
**Result** not met

**Query** Also check COC(=O)c1nc(-c2sc(-c3cccnc3)nc2C)ccc1Cl
**Result** not met

**Query** Also check CNc1nc(-c2sc(-c3cccnc3)nc2C)cs1
**Result** met

**Query** Also check c1cnc(Cn2ccc(-c3cnc(-c4cccnc4)s3)n2)nc1
**Result** met

**Query** Also check Cc1nc(-c2cccnc2)sc1-c1nc(C(=O)N(C)C)cs1
**Result** met

**Query** Also check Cc1nc(-c2cccnc2)sc1-c1ccc(C(F)(F)F)cn1
**Result** not met

**Query** Also check CCc1nnc(-n2ccc(-c3sc(-c4cccnc4)nc3C)n2)s1
**Result** not met

**Query** Also check c1cncc(-c2ncc(-c3cccc(-c4nccnn4)n3)s2)c1
**Result** met

**Query** Also check COCCCNC(=S)n1ccc(-c2sc(-c3cccnc3)nc2C)n1
**Result** not met

**Query** Also check COc1cc(OC)nc(-c2nccc(-c3sc(-c4cccnc4)nc3C)n2)n1
**Result** not met

Reference source for all entries: patent US9451775B2
